Source: PubChem BioAssay

# z-score per record follows
test name: ATP-based viability of Huh7 replicon cells – cell-based, CellTiter-Glo luminescence, basal, 48 h, cytotoxicity control for HCV replication inhibitor project, primary screen (AID 1143);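 also: Huh7 hepatoma cells carrying a hepatitis C replication reporter with no stimulus; test concentration not given here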
experimental parameters: higher = more signal, called active from +8 up or from −8 down
No unit in the answer, only the number.

Field request: z-score | item: C=CC[C@@]1(C(=O)N2CCCCC2)N=C(c2ccc(OCCCO)cc2)O[C@@H]1c1ccccc1CN=[N+]=[N-]
-4.96

----------
# composite z-score per record follows
target under test: Neurogenic locus notch homolog protein 2 (Homo sapiens) (UniProt Q04721)
Sequence (Q04721 whole entry, looked up): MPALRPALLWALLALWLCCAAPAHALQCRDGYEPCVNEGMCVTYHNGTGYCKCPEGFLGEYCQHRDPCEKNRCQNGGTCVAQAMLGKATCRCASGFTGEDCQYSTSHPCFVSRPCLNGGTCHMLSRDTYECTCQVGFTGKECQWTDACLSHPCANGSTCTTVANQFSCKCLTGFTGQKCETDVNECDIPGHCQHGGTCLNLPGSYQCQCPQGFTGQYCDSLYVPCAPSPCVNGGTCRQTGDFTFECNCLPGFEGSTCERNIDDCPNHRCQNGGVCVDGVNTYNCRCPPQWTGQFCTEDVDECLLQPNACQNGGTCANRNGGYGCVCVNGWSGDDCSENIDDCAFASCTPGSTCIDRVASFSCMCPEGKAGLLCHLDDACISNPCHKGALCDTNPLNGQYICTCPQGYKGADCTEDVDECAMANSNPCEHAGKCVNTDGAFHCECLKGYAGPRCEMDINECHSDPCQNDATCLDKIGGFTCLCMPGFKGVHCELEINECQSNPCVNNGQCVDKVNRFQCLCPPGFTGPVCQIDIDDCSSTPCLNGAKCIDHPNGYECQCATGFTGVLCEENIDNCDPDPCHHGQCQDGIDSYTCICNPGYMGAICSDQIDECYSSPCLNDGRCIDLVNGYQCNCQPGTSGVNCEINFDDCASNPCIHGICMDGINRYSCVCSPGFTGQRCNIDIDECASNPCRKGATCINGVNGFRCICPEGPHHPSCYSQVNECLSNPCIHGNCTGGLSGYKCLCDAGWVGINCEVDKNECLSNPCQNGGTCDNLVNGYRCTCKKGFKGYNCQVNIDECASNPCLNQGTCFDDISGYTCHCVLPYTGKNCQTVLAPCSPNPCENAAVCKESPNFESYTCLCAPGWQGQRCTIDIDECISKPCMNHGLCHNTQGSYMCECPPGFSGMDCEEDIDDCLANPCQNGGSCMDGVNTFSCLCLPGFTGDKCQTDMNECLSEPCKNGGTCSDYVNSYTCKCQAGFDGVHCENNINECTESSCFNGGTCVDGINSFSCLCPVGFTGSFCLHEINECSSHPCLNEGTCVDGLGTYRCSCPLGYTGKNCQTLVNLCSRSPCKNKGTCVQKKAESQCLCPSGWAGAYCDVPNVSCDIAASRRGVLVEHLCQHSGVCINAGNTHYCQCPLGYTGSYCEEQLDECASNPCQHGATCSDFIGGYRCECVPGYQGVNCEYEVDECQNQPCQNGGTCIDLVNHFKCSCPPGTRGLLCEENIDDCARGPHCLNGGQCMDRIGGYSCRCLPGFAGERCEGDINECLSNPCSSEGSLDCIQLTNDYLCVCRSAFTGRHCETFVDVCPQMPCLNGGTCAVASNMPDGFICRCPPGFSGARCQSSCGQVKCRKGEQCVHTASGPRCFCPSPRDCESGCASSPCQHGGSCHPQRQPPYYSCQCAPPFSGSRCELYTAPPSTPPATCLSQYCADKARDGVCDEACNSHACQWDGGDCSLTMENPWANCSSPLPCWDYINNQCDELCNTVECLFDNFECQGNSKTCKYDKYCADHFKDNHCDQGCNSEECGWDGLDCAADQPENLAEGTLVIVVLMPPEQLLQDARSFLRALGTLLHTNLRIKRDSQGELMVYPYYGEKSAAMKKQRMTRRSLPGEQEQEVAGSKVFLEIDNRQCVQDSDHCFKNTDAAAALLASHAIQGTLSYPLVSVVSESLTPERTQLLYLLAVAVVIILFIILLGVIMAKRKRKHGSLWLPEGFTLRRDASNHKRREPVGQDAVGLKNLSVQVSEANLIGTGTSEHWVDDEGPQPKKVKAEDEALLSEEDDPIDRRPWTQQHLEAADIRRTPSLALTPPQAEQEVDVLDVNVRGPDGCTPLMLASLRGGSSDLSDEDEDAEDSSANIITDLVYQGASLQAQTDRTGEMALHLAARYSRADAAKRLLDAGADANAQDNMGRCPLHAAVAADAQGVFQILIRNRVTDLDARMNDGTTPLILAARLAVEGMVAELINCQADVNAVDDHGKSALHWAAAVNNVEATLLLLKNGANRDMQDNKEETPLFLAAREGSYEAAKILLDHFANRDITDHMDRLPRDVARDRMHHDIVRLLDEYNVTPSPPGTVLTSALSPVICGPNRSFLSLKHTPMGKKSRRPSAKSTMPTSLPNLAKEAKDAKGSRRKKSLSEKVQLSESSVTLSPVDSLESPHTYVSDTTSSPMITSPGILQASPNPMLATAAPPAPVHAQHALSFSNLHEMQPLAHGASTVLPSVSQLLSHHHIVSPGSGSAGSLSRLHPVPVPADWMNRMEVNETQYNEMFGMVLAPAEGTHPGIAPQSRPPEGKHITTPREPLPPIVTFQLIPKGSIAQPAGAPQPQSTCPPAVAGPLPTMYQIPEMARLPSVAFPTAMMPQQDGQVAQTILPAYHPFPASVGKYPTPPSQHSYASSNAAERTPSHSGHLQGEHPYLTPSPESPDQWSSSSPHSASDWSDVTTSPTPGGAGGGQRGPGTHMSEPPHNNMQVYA
test name: small molecules binding Notch2 protein – biochemical, small-molecule microarray, 635 nm fluorescence, stem cell growth factors, primary screen (AID 1073)
experimental parameters: higher = more signal
No unit in the answer, only the number.

Some compounds with recorded composite z-score:
CC(C)(C)OC(=O)CC[C@@]1(C(=O)N2CCCCC2)N=C(c2ccc(OCCCO)cc2)O[C@@H]1c1ccccc1 = 1.68
COC(=O)c1c(CC[C@@H](CO)NC(=O)NCCc2c[nH]c3ccccc23)oc(C(=O)Cc2ccccc2)c1C(=O)OC = 0.0378

Could you now consider this next compound?
Field request: composite z-score | item: C=CCOC(=O)[C@H]1[C@@H]2C(=O)O[C@@H](c3ccccc3)[C@@H](c3ccccc3)N2[C@@H](c2ccc(OCCOC(=O)[C@H]3C[C@H]4C(=O)N[C@@H](CCCCN(C)C)C(=O)N4[C@H]3c3cccc(OCCO)c3)cc2)[C@]12C(=O)Nc1ccc(I)cc12
0.914

----------
# z-score per record follows
test name: growth of efflux-deficient E. coli DRC39 – strain DRC39, OD650, 24 h, E. coli filamentation inducers, primary screen (AID 1178);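 also: growth measured as culture turbidity by optical density at 650 nm; test concentration not given here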
experimental parameters: E. coli DRC39 acrAB, higher = more signal, called active from +8 up or from −8 down
No unit in the answer, only the number.

Some molecules with recorded z-score:
CN1C(=O)C2C=CC(C(O)c3ccc(F)cc3)N(N(c3ccccc3)c3ccccc3)C2C1=O (stereo not drawn) = -0.513
O=C1C2C=CC(C(O)c3ccc(F)cc3)N(Nc3ccc([N+](=O)[O-])cc3)C2C(=O)N1c1ccccc1 (stereo not drawn) = -1.47
O=C1C[C@@](C(=O)NCc2ccccc2)(c2ccc([N+](=O)[O-])cc2)[C@@H](c2ccc(CO)cc2)N1CC12CC3CC(CC(C3)C1)C2 = -0.202

Field request: z-score | item: COC(=O)C[C@H]1O[C@@H](CCc2ccccc2)[C@@H](C)[C@@H]1[Si](C)(C)c1ccc(OC)cc1
-0.0089

Field request: z-score | item: COc1cc2c(cc1O)C=[N+](Cc1cc3c(cc1Br)OCO3)CC2
-0.31

Field request: z-score | item: COc1cc(OC)c(C(O)C2C=CC3C(=O)NC(=O)C3N2Nc2ccccn2)cc1Br (stereo not drawn)
-0.0857

Field request: z-score | item: COc1ccc(NN2C(C(O)c3ccc(N(C)C)cc3)C=CC3C(=O)N(C4CCCCC4)C(=O)C32)cc1 (stereo not drawn)
-0.723

Field request: z-score | item: CCOC(=O)C1=CC[C@H]2C(=O)N(c3ccccc3)C(=O)[C@@H]12
-0.809

----------
test name: budding yeast growth changes without added modifier – OD600, strain BY4716, 24 h, basal condition, primary screen (AID 1173)
experimental parameters: S. cerevisiae BY4716 growth, OD600, 24 h; higher = more signal, called active from +8 up or from −8 down
Activity calls are given as the source filed them.
measure name: z-score

NC(=O)[C@@H]1[C@H]2C(=O)O[C@H](c3ccccc3)[C@H](c3ccccc3)N2[C@H](c2ccc(O)cc2)[C@@]12C(=O)Nc1ccc(C#CC3=CCCCC3)cc12 = 0.761 (inactive)

Field request: z-score | item: CC=CC(O)C1C=CC2C(=O)N(C)C(=O)C2N1N(c1ccccc1)c1ccccc1 (centres undefined)
0.554 (inactive)

Field request: z-score | item: C=C[C@H](C)[C@@H](OC(=O)Nc1ccc(SC)cc1)c1ccc(O)c2ccccc12
-18.2 (active)

Field request: z-score | item: [N-]=[N+]=NCc1ccccc1[C@@H]1OC(c2ccc(OCCCO)cc2)=N[C@]1(CCS(=O)(=O)c1ccccc1)C(=O)N1CCOCC1
-0.26 (inactive)

Field request: z-score | item: COCCCNC(=O)[C@@H]1c2ccccc2C(=O)N(Cc2ccccc2)[C@H]1c1ccc(CO)cc1
-0.141 (inactive)

Field request: z-score | item: COc1cc(CO)cc(I)c1O[C@H]1C=C(C(=O)NCCO)C[C@@H](N(C(=O)c2cc3ccccc3oc2=O)C2CCCCCC2)[C@@H]1O
-1.66 (inactive)

Field request: z-score | item: C=C(/C(=C/C[C@H](OC(C)=O)c1ccc(OCCO)cc1)c1cc(C(=O)OC)ccc1OC)C(C)C
-0.962 (inactive)

Field request: z-score | item: C=CCN1C(=O)[C@]2(O[C@H](CCO)[C@@H]([Si](C)(C)c3ccc(OC)cc3)[C@@H]2C)c2cc(N(C=O)c3ccccc3)ccc21
1.14 (inactive)

Field request: z-score | item: C=CCNC(=O)[C@@H]1[C@H]2C(=O)O[C@H](c3ccccc3)[C@H](c3ccccc3)N2[C@H](c2ccc(OCCO)cc2)[C@@]12C(=O)N(C(=O)OCCOC)c1ccc(C#CCNC(N)=O)cc12
1.04 (inactive)

Field request: z-score | item: CC(=O)NCCCC[C@@H]1NC(=O)[C@H]2C[C@@H](C(=O)NCCCCCNC(=O)CS)[C@@H](c3ccc(O)cc3)N2C1=O
1.14 (inactive)

Field request: z-score | item: C=CC1c2cc(O)c(OC)cc2CCN1Cc1cccc(OC(F)(F)F)c1 (centres undefined)
-16.7 (active)

Field request: z-score | item: CN1C(=O)C2C=CC(C(O)c3c(F)cccc3Cl)N(NC(=O)OC(C)(C)C)C2C1=O (centres undefined)
0.357 (inactive)

Field request: z-score | item: COc1ccc(CCNC(=O)[C@@]2(c3ccc([N+](=O)[O-])cc3)CC(=O)N(CC34CC5CC(CC(C5)C3)C4)[C@@H]2c2ccc(CO)cc2I)cc1
0.0097 (inactive)

Field request: z-score | item: COC(=O)C(CC#Cc1ccc2c(c1)[C@]1(C(=O)N2)[C@H](c2ccc(O)cc2)N2[C@H](c3ccccc3)[C@H](c3ccccc3)OC(=O)[C@H]2[C@@H]1C(=O)N1CCN(c2ncccn2)CC1)C(=O)OC
0.238 (inactive)

----------
# z-score per record follows
test name: change in splice reporter luminescence, either direction, cell-based, HEK293, spliceosome inhibition project, primary screen (AID 1101);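 also: HEK293 cells carrying a splicing-competent luciferase reporter gene; test concentration not given here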
experimental parameters: HEK293 splicing luciferase reporter, 24 h, higher = more signal, called active from +8 up or from −8 down
No unit in the answer, only the number.

Some molecules with recorded z-score:
CC(c1ccccc1)C(O)C1C=CC2C(=O)N(C)C(=O)C2N1NC(=O)OC(C)(C)C (centres undefined) = 1.18
CCOC(=O)C1=CCC(c2ccc(F)cc2)N(S(=O)(=O)c2ccc(C)cc2)C1 (centres undefined) = 0.0136
[N-]=[N+]=NCc1ccccc1C[C@@]1(C(=O)NCC(O)CO)N=C(c2ccc(OCCCO)cc2)O[C@@H]1c1ccccc1 (some centres undefined) = -0.195
CCCCN1CC=CC23O[C@@H]4/C=C\CCCOC(=O)C4[C@H]2C(=O)N(CCCO)[C@@H]3C1=O (some centres undefined) = 0.187
COCC(=C=CC[C@H](O)c1cccc(OCCO)c1)C[C@H](O)c1cc(Cl)cc(Cl)c1O = 0.102

Field request: z-score | item: C=CCN1C(=O)[C@]2(Cc3ccccc3)N=C(c3ccc(OCCCO)cc3)O[C@@H]2c2ccccc21
-1.37

Field request: z-score | item: C=CC[C@]1(C(N)=O)N=C(c2ccc(OCCCO)cc2)O[C@H]1c1ccccc1
0.27

Field request: z-score | item: N#Cc1ccc(C(O)C2C=CC3C(=O)N(c4ccccc4)C(=O)C3N2Nc2ccccc2F)cc1 (centres undefined)
-1.37

Field request: z-score | item: O=C(NC1CC1)[C@@H]1c2ccccc2C(=O)N(C2Cc3ccccc3C2)[C@H]1c1ccc(CO)cc1
0.199

Field request: z-score | item: C[N+](C)(C)CCCC[C@@H]1NC(=O)[C@H]2C[C@@H](C(=O)NCCCCCCNC(=O)CS)[C@@H](c3ccc(O)cc3)N2C1=O
-0.45

----------
target under test: Fibroblast growth factor 2 (Homo sapiens)
test name: basic fibroblast growth factor binding to printed compounds – biochemical, small-molecule microarray, 635/667 nm fluorescence, primary screen (AID 1133)
experimental parameters: FGF2, fluorescence 635/667, higher = more signal
measure name: composite z-score
No unit in the answer, only the number.

Some compounds with recorded composite z-score:
CC(c1ccccc1)C(O)C1C=CC2C(=O)N(c3ccccc3)C(=O)C2N1Nc1ccccc1 (stereo not drawn) = -0.124
CC(=O)n1cc(C(O)C2C=CC3C(=O)NC(=O)C3N2Nc2ccccn2)c2ccccc21 (stereo not drawn) = -0.219
NCCCCCNC(=O)[C@H]1C[C@H]2C(=O)N3CCC[C@H]3C(=O)N2[C@H]1c1ccc(O)cc1 = 1.35
CC(C)(C)OC(=O)CC[C@]1(C(N)=O)N=C(c2ccc(OCCCO)cc2)O[C@H]1c1ccccc1 = 0.29
CN(C)CCCCCCNC(=O)[C@@H]1C[C@@H]2C(=O)N[C@@H](CCCC[N+](C)(C)C)C(=O)N2[C@@H]1c1ccc(O)cc1 = 0.825

Field request: composite z-score | item: C=C(CCCC)/C(=C/C[C@H](OC(C)=O)c1ccc(OCCO)cc1)c1cnc2ccccc2c1
0.623

Field request: composite z-score | item: O=C1OCC=C[C@H]2OC34C=CCN(Cn5nnc6ccccc65)C(=O)[C@H]3N(CCCCCO)C(=O)[C@@H]4[C@@H]12 (stereo partly drawn)
-0.846

Field request: composite z-score | item: Cc1ccc(S[C@]2(C(=O)O)CC(=O)N(Cc3ccccc3C(F)(F)F)[C@@H]2c2ccc(CO)cc2I)cc1
0.511
